These entries and their values trace back to patent US20240217969A1.

Assayed Target: Cdc7 (Homo sapiens, UniProt O00311)
Sequence (O00311 whole entry): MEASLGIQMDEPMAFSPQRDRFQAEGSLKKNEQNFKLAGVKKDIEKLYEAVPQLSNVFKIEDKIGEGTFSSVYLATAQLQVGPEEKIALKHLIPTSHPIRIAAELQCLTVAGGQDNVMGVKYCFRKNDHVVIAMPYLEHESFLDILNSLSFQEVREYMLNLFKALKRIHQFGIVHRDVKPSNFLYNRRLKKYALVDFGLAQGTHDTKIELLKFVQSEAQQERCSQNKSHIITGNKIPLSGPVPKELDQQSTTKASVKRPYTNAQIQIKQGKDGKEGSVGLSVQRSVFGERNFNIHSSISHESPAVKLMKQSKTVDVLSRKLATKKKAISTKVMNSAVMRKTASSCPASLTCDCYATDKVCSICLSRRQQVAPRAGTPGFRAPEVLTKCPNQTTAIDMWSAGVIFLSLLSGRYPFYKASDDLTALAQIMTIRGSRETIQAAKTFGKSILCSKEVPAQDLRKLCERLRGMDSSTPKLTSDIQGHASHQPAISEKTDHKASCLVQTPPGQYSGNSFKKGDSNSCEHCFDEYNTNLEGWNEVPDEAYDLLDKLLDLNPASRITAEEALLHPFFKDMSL
Sequence (Q9UBU7 whole entry partner): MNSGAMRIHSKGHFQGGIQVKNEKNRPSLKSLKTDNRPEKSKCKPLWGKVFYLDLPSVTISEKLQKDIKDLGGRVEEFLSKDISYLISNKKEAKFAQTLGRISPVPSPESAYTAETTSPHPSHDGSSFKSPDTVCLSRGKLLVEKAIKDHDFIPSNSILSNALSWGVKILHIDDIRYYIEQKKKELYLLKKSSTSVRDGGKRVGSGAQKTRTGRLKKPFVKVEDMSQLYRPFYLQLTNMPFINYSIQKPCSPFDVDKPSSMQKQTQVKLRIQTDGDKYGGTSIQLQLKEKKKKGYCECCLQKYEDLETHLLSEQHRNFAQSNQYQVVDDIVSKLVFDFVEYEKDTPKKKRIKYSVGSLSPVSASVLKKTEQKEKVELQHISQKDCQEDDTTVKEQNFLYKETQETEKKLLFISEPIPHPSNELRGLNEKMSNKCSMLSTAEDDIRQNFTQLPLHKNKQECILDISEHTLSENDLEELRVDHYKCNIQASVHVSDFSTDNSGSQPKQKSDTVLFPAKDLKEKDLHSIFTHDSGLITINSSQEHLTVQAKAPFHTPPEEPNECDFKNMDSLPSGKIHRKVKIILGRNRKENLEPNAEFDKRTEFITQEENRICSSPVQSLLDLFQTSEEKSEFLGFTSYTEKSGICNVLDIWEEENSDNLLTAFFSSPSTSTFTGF
pIC50: −log10 of the molar value.
Lab note: compare pIC50 against 8. Equal or greater, write condition met. Smaller, write condition not met.

The examples below pair each entry with its known result.
> print(dat)
                            chemical.string  qualitative.label
1  Cc1ccc(-c2[nH]c(-c3cn[nH]c3)cc2C(N)=O)c(F)c1  condition not met
2  NC(=O)c1cc(-c2ccnc3[nH]ccc23)[nH]c1-c1ccc(F)cc1F      condition met
3  NC(=O)c1cc(-c2cc(N)ncn2)[nH]c1-c1ccc(Cl)cc1Cl  condition not met
4  Cc1ccc(-c2[nH]c(-c3ccnc4[nH]ccc34)c(I)c2C(N)=O)c(F)c1  condition not met
5  NC(=O)c1cc(-c2ccnc3[nH]ccc23)[nH]c1-c1ccc(F)cc1Cl      condition met

Does the reported pIC50 for `CCc1c(-c2ccnc3[nH]ccc23)[nH]c(-c2ccc(C)cc2F)c1C(N)=O` fall at or above the 8 mark?
condition not met
